Value source: paper PMC10700596

# test_summary: in vivo
# Format: in vivo, mice
# measurement_parameters: male, CD-1, mouse, brain, ip, 10 mg/kg, mice, IP 10 mg/kg, brain, 240 min, mean; read-out: Brain concentrations of cmpd 7827_0016 in mice following IP (10 mg/kg) administration, C
assay_readout: concentration at 240 min (ng/g)
One number for each entry, in ng/g.

Qu. Fill in the blank: the reported concentration at 240 min of O=C(O)C1CCC2(CC1)CC(Nc1ncnc3[nH]c4c(F)cccc4c13)C2 (stereo not shown) [Compound 74] is ____.
Ans. 24.7

* * *

# test_summary: in vivo
# Type: in vivo, mice
# measurement_parameters: male, CD-1, mouse, plasma, ip, 10 mg/kg, mice, IP 10 mg/kg, plasma, 5 min, individual animals; read-out: Plasma concentration, Final (individual sample)
assay_readout: concentration at 5 min (ng/mL)
Numbers only, in ng/mL.

Qu. Fill in the blank: the reported concentration at 5 min of CCc1nc2c(C)nc(C)cc2n1-c1ccc(CCNC(=O)NS(=O)(=O)c2ccc(C)cc2)cc1 [Grapiprant, reference compound] is ____.
Ans. 546

* * *

# test_summary: in vivo
# Format: in vivo, mice
# measurement_parameters: male, CD-1, mouse, plasma, ip, 10 mg/kg, mice, IP 10 mg/kg, plasma, 5 min, individual animals; read-out: Plasma concentration, Final
assay_readout: concentration at 5 min (ng/mL)
Answers are plain numbers, in ng/mL.

Qu. Fill in the blank: the reported concentration at 5 min of O=C(O)C1CCC2(CC1)CC(Nc1ncnc3[nH]c4c(F)cccc4c13)C2 (stereo not shown) is ____.
Ans. 1340

* * *

# test_summary: in vivo
# Assay type: in vivo, mice
# measurement_parameters: male, CD-1, mouse, plasma, ip, 10 mg/kg, mice, IP 10 mg/kg, plasma, 5 min, single animal, D=1; read-out: Final plasma concentration, individual sample
assay_readout: concentration at 5 min (µg/mL)
Give bare numbers, in µg/mL.

Qu. Fill in the blank: the reported concentration at 5 min of O=C([O-])C1CCC2(CC1)CC(Nc1ncnc3[nH]c4c(F)cccc4c13)C2.[Na+] (stereo not shown) is ____.
Ans. 2.38

* * *

# test_summary: in vivo
# Assay type: in vivo, mice
# measurement_parameters: male, CD-1, mouse, plasma, ip, 10 mg/kg, mice, IP 10 mg/kg, plasma, 15 min, single animal, D=1; read-out: Final plasma concentration, individual sample
assay_readout: concentration at 15 min (ng/mL)
Numbers only, in ng/mL.

Qu. Fill in the blank: the reported concentration at 15 min of O=C([O-])C1CCC2(CC1)CC(Nc1ncnc3[nH]c4c(F)cccc4c13)C2.[Na+] (stereo not shown) [Compound 77] is ____.
Ans. 6880

* * *

# test_summary: in vivo
# Assay type: in vivo, mice
# measurement_parameters: male, CD-1, mouse, plasma, iv, 10 mg/kg, mice, IV 10 mg/kg, plasma, 240 min, single animals; read-out: Plasma concentration, Final (individual mouse)
assay_readout: concentration at 240 min (ng/mL)
Answers are plain numbers, in ng/mL.

Qu. Fill in the blank: the reported concentration at 240 min of O=C([O-])C1CCC2(CC1)CC(Nc1ncnc3[nH]c4c(F)cccc4c13)C2.[Na+] (stereo not shown) is ____.
Ans. 2370

* * *

# test_summary: in vivo
# Assay type: in vivo, mice
# measurement_parameters: male, CD-1, mouse, brain, ip, 10 mg/kg, mice, IP 10 mg/kg, brain, 5 min, mean of 3; read-out: Brain concentration C (mean)
assay_readout: concentration at 5 min (ng/g)
Answers are plain numbers, in ng/g.

Qu. Fill in the blank: the reported concentration at 5 min of CCc1nc2c(C)nc(C)cc2n1-c1ccc(CCNC(=O)NS(=O)(=O)c2ccc(C)cc2)cc1 [Grapiprant, reference compound] is ____.
Ans. 21.9

* * *

# test_summary: in vivo
# Type: in vivo, mice
# measurement_parameters: male, CD-1, mouse, CSF, ip, 10 mg/kg, mice, IP 10 mg/kg, CSF, 5 min, mean of 3; read-out: CSF concentration C (mean)
assay_readout: concentration at 5 min (ng/mL)
Give bare numbers, in ng/mL.

Qu. Fill in the blank: the reported concentration at 5 min of CCc1nc2c(C)nc(C)cc2n1-c1ccc(CCNC(=O)NS(=O)(=O)c2ccc(C)cc2)cc1 [Grapiprant, reference compound] is ____.
Ans. 9.11

* * *

# test_summary: in vivo
# Type: in vivo, mice
# measurement_parameters: male, CD-1, mouse, plasma, po, 30 mg/kg, mice, PO 30 mg/kg, plasma, 30 min; read-out: Plasma concentration C (mean)
assay_readout: concentration at 30 min
Units required after the number.

Qu. Fill in the blank: the reported concentration at 30 min of O=C([O-])C1CCC2(CC1)CC(Nc1ncnc3[nH]c4c(F)cccc4c13)C2.[Na+] (stereo not shown) [Compound 77] is ____.
Ans. 21700 ng/mL

* * *

# test_summary: in vivo
# Format: in vivo, mice
# measurement_parameters: male, CD-1, mouse, plasma, ip, 10 mg/kg, mice, IP 10 mg/kg, plasma, 5 min, mean; read-out: Plasma concentrations of cmpd 7827_0016 in mice following IP (10 mg/kg) administration, C
assay_readout: concentration at 5 min (ng/mL)
One number for each entry, in ng/mL.

Qu. Fill in the blank: the reported concentration at 5 min of O=C(O)C1CCC2(CC1)CC(Nc1ncnc3[nH]c4c(F)cccc4c13)C2 (stereo not shown) is ____.
Ans. 1150

* * *

# test_summary: in vivo
# Assay type: in vivo, mice
# measurement_parameters: male, CD-1, mouse, plasma, ip, 10 mg/kg, mice, IP 10 mg/kg, plasma, 60 min, individual animals; read-out: Plasma concentration, Final
assay_readout: concentration at 60 min (µg/mL)
Numbers only, in µg/mL.

Qu. Fill in the blank: the reported concentration at 60 min of O=C(O)C1CCC2(CC1)CC(Nc1ncnc3[nH]c4c(F)cccc4c13)C2 (stereo not shown) [Compound 74] is ____.
Ans. 6.62

* * *

# tested_on: EP4R (Homo sapiens, UniProt P35408)
# Construct: Tango fusion cassette (only 'tango' is printed); expressed in transfected cells; host or cells: HTLA cells (tTA-dependent luciferase reporter, β-arrestin2-TEV fusion)
# Sequence (P35408 whole entry, the tested form may be a part): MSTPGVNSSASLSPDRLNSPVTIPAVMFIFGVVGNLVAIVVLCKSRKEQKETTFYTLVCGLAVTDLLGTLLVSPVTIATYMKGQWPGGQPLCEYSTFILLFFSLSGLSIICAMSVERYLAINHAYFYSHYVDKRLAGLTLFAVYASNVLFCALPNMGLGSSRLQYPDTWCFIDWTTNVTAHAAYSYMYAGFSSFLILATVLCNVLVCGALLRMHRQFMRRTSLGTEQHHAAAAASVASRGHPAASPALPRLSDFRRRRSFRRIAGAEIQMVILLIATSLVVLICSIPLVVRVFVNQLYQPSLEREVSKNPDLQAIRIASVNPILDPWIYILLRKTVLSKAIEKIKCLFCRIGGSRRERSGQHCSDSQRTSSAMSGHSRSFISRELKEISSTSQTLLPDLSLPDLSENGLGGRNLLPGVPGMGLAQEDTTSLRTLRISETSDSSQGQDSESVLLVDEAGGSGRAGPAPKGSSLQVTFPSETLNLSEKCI
# test_summary: PRESTO-Tango β-arrestin2 recruitment assay
# Assay type: cell-based
# measurement_parameters: PRESTO-Tango IC50 (nM)
assay_readout: log10(IC50) (log10 of the value in nM)
Form field - Quantity: IC50; Unit: nM; Scale: log10

Known results for compounds:
O=C([O-])C1CCC2(CC1)CC(Nc1ncnc3[nH]c4c(F)cccc4c13)C2.[Na+] (centres unmarked) :: 2.37
CN(c1ncnc2[nH]c3ccccc3c12)C1CC2(CCC(C(=O)O)CC2)C1 (centres unmarked) :: 3.07
O=C(NC1CCCC(C(=O)O)CC1)c1nn(-c2cccc(F)c2)c2c1CCC2 (centres unmarked) :: 3.17
O=C(O)C1CCC2(CC1)CC(Nc1ncnc3[nH]c4ccccc4c13)C2 (centres unmarked) :: 2.74
O=C(O)C1CCC2(CC1)CC(Nc1ncnc3[nH]c4c(F)cccc4c13)C2 (centres unmarked) :: 2.48
O=C(O)C1CCC2(CC1)CC(Nc1ncnc3[nH]c4ccc(Br)cc4c13)C2 (centres unmarked) :: 1.96
O=C(O)C1CCC2(CC1)CC(Nc1ncnc3[nH]c4cc(F)ccc4c13)C2 (centres unmarked) :: 2.31
O=C(O)C1CCC2(CC1)CC(Nc1ncnc3sc4ccccc4c13)C2 (centres unmarked) :: 2.65

Dear colleague, could you please provide log10(IC50) for the compounds listed below?
1. Cn1c2ccccc2c2c(NC3CC4(CCC(C(=O)O)CC4)C3)ncnc21 (centres unmarked)
2. O=C(O)C1CCC2(CC1)CC(Nc1ncnc3sc4c(c13)CCCC4)C2 (centres unmarked)
3. O=C(NC1CCCC(C(=O)O)CC1)c1csc(C2CCCCC2)c1 (centres unmarked)

Ans.
[2.78, 2.93, 3.58]

* * *

# test_summary: in vivo
# Format: in vivo, mice
# measurement_parameters: male, CD-1, mouse, plasma, ip, 10 mg/kg, mice, IP 10 mg/kg, plasma, 360 min, mean of 3; read-out: Plasma concentration C (mean)
assay_readout: concentration at 360 min (ng/mL)
One number for each entry, in ng/mL.

Qu. Fill in the blank: the reported concentration at 360 min of CCc1nc2c(C)nc(C)cc2n1-c1ccc(CCNC(=O)NS(=O)(=O)c2ccc(C)cc2)cc1 [Grapiprant, reference compound] is ____.
Ans. 11.2

* * *

# test_summary: in vivo
# Type: in vivo, mice
# measurement_parameters: male, CD-1, mouse, brain, ip, 10 mg/kg, mice, IP 10 mg/kg, brain, 240 min, mean of 3; read-out: Brain concentration C (mean)
assay_readout: concentration at 240 min (ng/g)
Give bare numbers, in ng/g.

Qu. Fill in the blank: the reported concentration at 240 min of CCc1nc2c(C)nc(C)cc2n1-c1ccc(CCNC(=O)NS(=O)(=O)c2ccc(C)cc2)cc1 [Grapiprant, reference compound] is ____.
Ans. 0
